Target: T1, AIRE-PHD1 Asp304Ala (human, UniProt O43918 293-354, Asp304Ala)
T1 sequence (looked up): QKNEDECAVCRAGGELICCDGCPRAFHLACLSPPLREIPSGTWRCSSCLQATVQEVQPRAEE
Experiment: ITC

>  <binder>
ARTKQTARKS [non-modified histone H3 tail peptide H3K4me0 (residues 1-10)]

>  <Kd>
123 µM

$$$$
